The compounds listed here are annotated with their survival.
system: DeltatarO mutant; assay: S. aureus survival, RN4220 and DeltatarO strains – OD600, teichoic acid synthesis inhibitors, primary screen (AID 463173); conditions: S. aureus RN4220 wild type/DeltatarO growth, OD600, 18 h, stronger effect = lower value, screened at 18.75 µg/mL (by protocol)
Among all 52,000 compounds or so, about 4,300 (8.3%) were called active. What follows is part of a selection rich in actives, with near analogues and random picks from the rest.
Record the value in %, omitting the unit from your answer.

> print(dat)
                                   compound  observed
1  COc1ccc(N2CC(NC(=O)c3ccco3)CC2=O)cc1OC (stereo not given)        89
2  COc1ccc(Cl)cc1C(=O)Nc1ccc2nc(Nc3cccc(Cl)c3)cc(C)c2c1        93
3  COc1ccccc1C(=O)Nc1ccc2nc(N3CCC(C)CC3)cc(C)c2c1         3
4  COc1ccc(C(=O)Nc2ccc3nc(N4CCC(C)CC4)cc(C)c3c2)cc1        56

Attention now turns to another entry.
q: Provide value of survival for this record tested with DeltatarO mutant: COc1ccc(C(=O)Nc2ccc3nc(N4CCCCC4)cc(C)c3c2)c(OC)c1
a: 44
